Target System: Androgen receptor (Rattus norvegicus)
Sequence (P15207 whole entry S389L): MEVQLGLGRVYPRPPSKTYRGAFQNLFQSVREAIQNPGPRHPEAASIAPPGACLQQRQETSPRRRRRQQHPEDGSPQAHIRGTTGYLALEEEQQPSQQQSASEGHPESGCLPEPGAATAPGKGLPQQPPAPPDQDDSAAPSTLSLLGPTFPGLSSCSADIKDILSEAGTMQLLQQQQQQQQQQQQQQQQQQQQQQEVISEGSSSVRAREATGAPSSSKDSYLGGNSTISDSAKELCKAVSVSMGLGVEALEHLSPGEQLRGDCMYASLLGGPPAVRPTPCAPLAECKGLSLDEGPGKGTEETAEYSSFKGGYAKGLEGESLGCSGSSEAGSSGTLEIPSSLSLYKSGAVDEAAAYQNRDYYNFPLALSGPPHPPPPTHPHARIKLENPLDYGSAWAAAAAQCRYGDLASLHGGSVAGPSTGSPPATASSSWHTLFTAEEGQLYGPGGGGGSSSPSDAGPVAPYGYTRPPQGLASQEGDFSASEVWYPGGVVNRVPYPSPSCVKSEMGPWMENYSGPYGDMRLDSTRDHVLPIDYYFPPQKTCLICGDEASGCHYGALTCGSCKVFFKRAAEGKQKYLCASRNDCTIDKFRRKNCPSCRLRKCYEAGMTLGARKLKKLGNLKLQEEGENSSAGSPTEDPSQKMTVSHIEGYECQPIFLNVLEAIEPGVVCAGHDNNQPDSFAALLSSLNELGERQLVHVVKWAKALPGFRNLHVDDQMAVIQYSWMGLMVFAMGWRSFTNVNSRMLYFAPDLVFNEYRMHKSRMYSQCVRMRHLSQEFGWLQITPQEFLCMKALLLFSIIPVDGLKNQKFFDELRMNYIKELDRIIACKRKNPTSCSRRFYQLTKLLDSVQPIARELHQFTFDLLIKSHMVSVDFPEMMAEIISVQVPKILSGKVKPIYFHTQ
pIC50: −log10 of the molar value.
# binarize pIC50: threshold 5 inclusive, high side 1.0, low side 0.0

- Compound: "CCN(CC)C(=O)C[C@H]1CC[C@H]2[C@@H]3CCC4N(C)C(=O)CC[C@]4(C)[C@H]3CC[C@]12C (some centres not stated)"
  Discrete Label: 1.0
- Compound: "CCCCCCCCN(CCCCCCCC)C(=O)[C@H]1CC[C@H]2[C@@H]3CCC4N(C)C(=O)CC[C@]4(C)[C@H]3CC[C@]12C (some centres not stated)"
  Discrete Label: 0.0
- Compound: "CCN(CC)C(=O)[C@H]1CC[C@H]2[C@@H]3CC[C@H]4N(C)C(=O)[C@@H](C)C[C@]4(C)[C@H]3CC[C@]12C"
  Discrete Label: 1.0
- Compound: "CCN(CC)C(=O)[C@H]1CC[C@H]2[C@@H]3CC[C@H]4NC(=O)CCC[C@]4(C)[C@H]3CC[C@]12C"
  Discrete Label: 0.0
- Compound: "CC(C)CC(=O)[C@H]1CC[C@H]2[C@@H]3CCC4NC(=O)C=C[C@]4(C)[C@H]3CC[C@]12C (some centres not stated)"
  Discrete Label: 0.0
- Compound: "CC(=O)[C@H]1CC[C@H]2[C@@H]3CCC4=CC(=O)CC[C@]4(C)[C@H]3[C@H](O)C[C@]12C"
  Discrete Label: 1.0
- Compound: "CN1C(=O)CC[C@@]2(C)C1=CC[C@H]1[C@@H]3CC[C@H](O)[C@@]3(C)CC[C@@H]12"
  Discrete Label: 1.0

Reference source: ChEMBL document CHEMBL1123274
